Target: RBPMS (Homo sapiens)
Sequence (Q93062 1-125): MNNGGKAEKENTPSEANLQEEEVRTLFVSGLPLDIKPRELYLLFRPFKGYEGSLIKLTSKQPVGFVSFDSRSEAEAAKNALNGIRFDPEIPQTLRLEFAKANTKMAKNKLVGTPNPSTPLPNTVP
Experiment: protein domain microarray probed with biotinylated miRNA; Domain array: 20 mM Tris-HCl pH 7.4, 200 mM KCl, 0.2 mM EDTA, 0.05% NP40, 2 ug/ul heparin, overnight 4 C. ORF array: PBS pH 7.0 with RNase inhibitor, 100 ng RNA; high values mean tight binding
Settings: ssRNA
READOUT_KIND: log10 of binding signal (log10 of the value in fluorescence intensity)

- CONSTRUCT_SEQUENCE: "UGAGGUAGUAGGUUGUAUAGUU"
  SYSTEM: "RBPMS (Homo sapiens)"
  log10 of binding signal: 1.80
- CONSTRUCT_SEQUENCE: "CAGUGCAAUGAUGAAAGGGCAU"
  SYSTEM: "RBPMS (Homo sapiens)"
  log10 of binding signal: 2.93
- CONSTRUCT_SEQUENCE: "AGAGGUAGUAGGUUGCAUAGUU"
  SYSTEM: "RBPMS (Homo sapiens)"
  log10 of binding signal: 2.88
- CONSTRUCT_SEQUENCE: "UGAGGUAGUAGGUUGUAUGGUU"
  SYSTEM: "RBPMS (Homo sapiens)"
  log10 of binding signal: 2.16
- CONSTRUCT_SEQUENCE: "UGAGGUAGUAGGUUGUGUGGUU"
  SYSTEM: "RBPMS (Homo sapiens)"
  log10 of binding signal: 2.23

----------
Target: RBM5 (Homo sapiens)
Sequence: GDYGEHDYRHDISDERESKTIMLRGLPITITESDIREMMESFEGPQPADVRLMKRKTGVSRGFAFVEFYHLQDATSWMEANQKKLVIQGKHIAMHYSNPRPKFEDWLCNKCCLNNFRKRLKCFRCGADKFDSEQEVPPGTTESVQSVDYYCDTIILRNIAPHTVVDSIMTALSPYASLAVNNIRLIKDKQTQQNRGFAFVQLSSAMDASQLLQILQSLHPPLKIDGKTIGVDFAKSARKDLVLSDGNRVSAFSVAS
Assay: protein domain microarray probed with biotinylated miRNA; Domain array: 20 mM Tris-HCl pH 7.4, 200 mM KCl, 0.2 mM EDTA, 0.05% NP40, 2 ug/ul heparin, overnight 4 C. ORF array: PBS pH 7.0 with RNase inhibitor, 100 ng RNA; high values mean tight binding
Conditions: ssRNA
We use 600 fluorescence intensity as the dividing line for binding signal: on or above the line is y, below is n.

- CONSTRUCT_SEQUENCE: "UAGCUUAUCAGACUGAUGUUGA"
  ASSIGNED_LABEL: "n"
- CONSTRUCT_SEQUENCE: "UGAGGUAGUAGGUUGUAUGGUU"
  ASSIGNED_LABEL: "y"
- CONSTRUCT_SEQUENCE: "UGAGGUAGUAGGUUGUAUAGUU"
  ASSIGNED_LABEL: "n"
- CONSTRUCT_SEQUENCE: "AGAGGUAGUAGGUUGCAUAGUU"
  ASSIGNED_LABEL: "y"
- CONSTRUCT_SEQUENCE: "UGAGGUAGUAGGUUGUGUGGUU"
  ASSIGNED_LABEL: "y"

----------
Biological target: RBMS3 (Homo sapiens)
Sequence: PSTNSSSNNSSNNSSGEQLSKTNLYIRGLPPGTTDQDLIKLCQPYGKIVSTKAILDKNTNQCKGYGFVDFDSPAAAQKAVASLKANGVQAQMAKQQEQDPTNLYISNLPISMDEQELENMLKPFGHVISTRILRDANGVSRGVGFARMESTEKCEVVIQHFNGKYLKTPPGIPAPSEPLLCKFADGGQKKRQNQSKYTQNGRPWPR
Assay: protein domain microarray probed with biotinylated miRNA; Domain array: 20 mM Tris-HCl pH 7.4, 200 mM KCl, 0.2 mM EDTA, 0.05% NP40, 2 ug/ul heparin, overnight 4 C. ORF array: PBS pH 7.0 with RNase inhibitor, 100 ng RNA; high values mean tight binding
Conditions: ssRNA
Measured binding signal of individual entries
READOUT_KIND: binding signal (fluorescence intensity)

- CONSTRUCT_SEQUENCE: "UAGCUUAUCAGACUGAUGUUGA"
  READOUT_KIND: "binding signal"
  MEASUREMENT_UNITS: "fluorescence intensity"
  NUMERIC_RESULT: 45.1
- CONSTRUCT_SEQUENCE: "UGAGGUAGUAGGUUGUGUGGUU"
  READOUT_KIND: "binding signal"
  MEASUREMENT_UNITS: "fluorescence intensity"
  NUMERIC_RESULT: 564
- CONSTRUCT_SEQUENCE: "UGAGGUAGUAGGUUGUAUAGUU"
  READOUT_KIND: "binding signal"
  MEASUREMENT_UNITS: "fluorescence intensity"
  NUMERIC_RESULT: 86.8
- CONSTRUCT_SEQUENCE: "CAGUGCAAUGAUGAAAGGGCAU"
  READOUT_KIND: "binding signal"
  MEASUREMENT_UNITS: "fluorescence intensity"
  NUMERIC_RESULT: 211
